Where these numbers come from: patent US20250243286A1

This section presents binders with their documented pKd values.
Target: T1, human ActRIIB (human, UniProt Q13705 19-137, limits assumed)
T1 construct: antigen in MSD-SET; also called ACVR2B; ActR2B
T1 sequence: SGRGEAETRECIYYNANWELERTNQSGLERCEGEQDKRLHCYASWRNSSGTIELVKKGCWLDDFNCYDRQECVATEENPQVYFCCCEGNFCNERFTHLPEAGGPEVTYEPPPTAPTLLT
Assay: MSD-SET, preliminary
pKd: −log10 of the molar value.

{"Binder": "Bebballesgmias Fab (Fab, V domains shown, Fab) VH: QVQLVQSGAEVKKPGSSVKVSCKASGYKFTSSYINWVRQAPGQGLEWMGTINPVSGSTSYAQKFQGRVTITADTSTSTAYMELSSLRSEDTAVYYCARGGWFDYWGQGTLVTVSS VL: QSALTQPRSVSGSPGQSVTISCTGTSSDVGSYNYVNWYQQHPGKAPKLMIYGVSKRPRGVPDRFSGSKSGNTASLTISGLQAEDEADYYCGTFAGGSYYGVFGGGTKLTVL", "pKd": 10.60}
{"Binder": "Antibody Soidawürstle (antibody, V domains shown, full-length IgG; also called Soidawüsrstel) VH: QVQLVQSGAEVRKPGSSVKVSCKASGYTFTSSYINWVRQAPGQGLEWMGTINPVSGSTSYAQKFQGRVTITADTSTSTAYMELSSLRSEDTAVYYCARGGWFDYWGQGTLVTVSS VL: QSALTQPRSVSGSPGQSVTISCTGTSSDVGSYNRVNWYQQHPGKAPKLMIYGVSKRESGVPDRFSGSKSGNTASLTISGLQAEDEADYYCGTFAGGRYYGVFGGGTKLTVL", "pKd": 10.29}
